Test description: Inhibition of Cytochrome b-c1 complex in yeast mitochondrial membrane assessed as decyclobiquinol-linked cytochrome c reduction by spectrophotometry
Type: cell membranes, Saccharomyces cerevisiae
Value kind: IC50 (nM)
Value expressed in nM; do not type the unit.

CCCCCCCC(=O)OCC(C)(C)CC1=C(O)C(=O)c2ccccc2C1=O ... 16

// switching to the query compound
Given the compound `CCCCCCCCCCCCCC(=O)OCC(C)(C)CC1=C(O)C(=O)c2ccccc2C1=O` , what is its reported IC50? 79.6
